B1: PPFIA4 (parent)
chain: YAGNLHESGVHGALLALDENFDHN

# Variants of: B1
# procedure_text: protein stability index of a GFP-peptide fusion (GPS, HEK-293T) (PSI 1-6); higher = more stable;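 further: lentivirally expressed fusions sorted by FACS into six bins by GFP to DsRed ratio, PSI derived from sequencing read proportions per bin multiplied by bin number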
# run_conditions: c terminus: a fixed tail appended
So basically every entry gets a class from its protein stability index, ranges being class 1 (below 2), class 2 (2 to below 3), class 3 (3 or more)

Worked examples, 10 variants total:
>>> assigned_class("YAGNLHESGVHGALLAYDENFDHN [L17Y]")
"class 1"
>>> assigned_class("VAGNLHESGVHGALLALDENFDHN [Y1V]")
"class 3"
>>> assigned_class("YAGNLHESGVHGILLALDENFDHN [A13I]")
"class 1"
>>> assigned_class("YAGNLHESGVHGALLALTENFDHN [D18T]")
"class 2"
>>> assigned_class("YAGNLHESGVHGALLALDENFKHN [D22K]")
"class 2"
>>> assigned_class("YAGNLHESGVHGMLLALDENFDHN [A13M]")
"class 1"
>>> assigned_class("YAGNLHESGVRGALLALDENFDHN [H11R]")
"class 2"
>>> assigned_class("YAGNLHESGVHGALLALNENFDHN [D18N]")
"class 2"
>>> assigned_class("YAGNKHESGVHGALLALDENFDHN [L5K]")
"class 2"
>>> assigned_class("YAGNLHESGVHGALLALDWNFDHN [E19W]")
"class 3"

## Input Into which bin does this variant go? MAGNLHESGVHGALLALDENFDHN [Y1M]
## Output class 3

## Input Hi there! Could you help me figure out the category for HAGNLHESGVHGALLALDENFDHN [Y1H] please?
## Output class 3

## Input Which protein stability index band matches YAGNLHESGVHGALLALDENFDHE [N24E] ?
## Output class 3

## Input Lab note: which band did YAGNLHESGVHGALLKLDENFDHN [A16K] land in?
## Output class 2

## Input # bin label for YAGNCHESGVHGALLALDENFDHN [L5C]
## Output class 2
